Tested on: wild-type E. coli (K12 MG1655)
PROTOCOL_NOTES: PAE in wild-type E. coli in the presence of sub-MIC azithromycin
Type: cell-based, Escherichia coli
SETUP_CONDITIONS: 16xMIC, then media with 0.4xMIC azithromycin, 37° C.
Measured PAE (h) (sub-MIC AZ) 16x(0.4), listed per entry.

{"columns": ["MOLECULE", "PAE (h) (sub-MIC AZ) 16x(0.4)"],
 "data": [
  ["Cn1nnnc1SCC1=C(C(=O)O)N2C(=O)[C@@H](NC(=O)[C@H](O)c3ccccc3)[C@H]2SC1", 0],
  ["CC(CCn1ccc(-c2ccc(-c3cn(Cc4ccccc4)nn3)cc2)cc1=O)(C(=O)NO)S(C)(=O)=O (racemic)", 2.6],
  ["C[C@@H](O)[C@H](NC(=O)c1ccc(C#Cc2ccc(CN3CCOCC3)cc2)cc1)C(=O)NO", 3.7],
  ["CC(CCn1ccc(-c2ccc(-n3nccn3)cc2)cc1=O)(C(=O)NO)S(C)(=O)=O (racemic)", 2.4]
]}
